assay: chemical genetic growth profiling, strain panel (AID 1159580);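 further: tested at 20 µM; growth read once vehicle control cultures reached saturation at 30 °C; 1 = growth at the plate median or of vehicle wells; lower values mean less growth of the strain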; settings: S. cerevisiae deletion strains, growth OD, locus YER123W, strain YCK3
Hit rate of the full screen: of about 5,500 compounds, about 2,000 (36%) were called active. Another 18% or so got no clear call; they are omitted. No stated cut-off is given here; in the data, active means normalized growth mostly below about 0.91 (no sharp cut-off); inconclusive means no clear call, values can overlap the other calls; inactive means mostly above about 0.92. Some of the results follow.
Use one of these outcomes when replying: active, inactive

{"SMILES TEXT": "COc1cc(Cl)ccc1N/N=C(/C#N)C(N)=O", "CATEGORY": "active"}
{"SMILES TEXT": "O=C(NCc1ccc(Cl)c(Cl)c1)c1cccnc1OCC(F)(F)F", "CATEGORY": "inactive"}
{"SMILES TEXT": "Cc1c(C(=O)Sc2ccc(F)cc2F)sc2nc(C(F)(F)F)nn12", "CATEGORY": "active"}

Data request: Which outcome was entered for the compound O=[N+]([O-])c1ccc(ON=C2CCCCC2)c([N+](=O)[O-])c1 in this test?
Data returned: inactive

Data request: Please indicate how the test categorized CC(C)c1ccc(COC(=O)Nc2ccc(CSc3ccc(Cl)cc3)o2)cc1 .
Data returned: inactive

* * *

# normalized growth listing for each entry below
assay: chemical genetic growth profiling, strain panel (AID 1159580); conditions: S. cerevisiae deletion strains, growth OD, locus YJL129C, strain trk1, active compounds read low
About 2,000 (36%) of roughly 5,500 compounds were called active. Roughly 18% stayed inconclusive and do not appear here. The list shows a part of the results.
Answer with a number only.

Examples with answers:
{"COMPOUND": "C=C1C2CC[C@@]3(C)[C@H](c4ccoc4)OC(=O)C[C@]13O[C@H]1CC(=O)C(C)(C)[C@H](C(OC(C)=O)C(=O)OC)[C@@]21C (stereo partly specified)", "normalized growth": 1}
{"COMPOUND": "Cn1c(=O)c2c(ncn2CC(O)CO)n(C)c1=O (stereo unspecified)", "normalized growth": 0.994}
{"COMPOUND": "CCC(C)C(=O)O[C@@H]1C[C@@]2(C)[C@H](c3ccoc3)OC(=O)CC23OC2(C)O[C@]14[C@]1(C)[C@@H](CC(=O)OC)C5(C)CC1(O)[C@](O)(C5OC(=O)C1(C)OC1C)[C@@H](OC(C)=O)[C@]34O2 (stereo partly specified)", "normalized growth": 0.983}
{"COMPOUND": "NS(=O)(=O)c1cc2c(cc1Cl)NC=NS2(=O)=O", "normalized growth": 1.02}

Data request: For the compound C=CCc1ccc(O)c(OC)c1 , give its reported normalized growth.
Data returned: 0.979

Data request: Recall and state the measured normalized growth for O=C(O[C@@H]1Cc2c(O)cc(O)cc2O[C@@H]1c1cc(O)c(O)c(O)c1)c1cc(O)c(O)c(O)c1 .
Data returned: 1.02

* * *

assay: chemical genetic growth profiling, strain panel (AID 1159580); details: S. cerevisiae deletion strains, growth OD, locus YDR392W, strain spt3, active compounds read low
The campaign covered roughly 5,500 compounds. About 2,000 (36%) were called active. Roughly 18% stayed inconclusive and do not appear here. Some of the results follow.
The following compounds are listed with their measured normalized growth values.
Reply: number alone, nothing else.

{"COMPOUND": "NCCc1cnc[nH]1", "normalized growth": 1}
{"COMPOUND": "CC1(O)CC2C(CC1O)C2(C)C (centres undefined)", "normalized growth": 1}
{"COMPOUND": "C=C[C@@](C)(O)CCC1C(=C)CCC2[C@@](C)(CO)CCC[C@]12C (some centres undefined)", "normalized growth": 0.833}

Data request: Look up normalized growth of O=S(=O)(O)c1cc(N=C=S)ccc1/C=C/c1ccc(N=C=S)cc1S(=O)(=O)O and report it.
Data returned: 0.919

* * *

Below, each entry is listed with its recorded normalized growth.
test: chemical genetic growth profiling, strain panel (AID 1159580); details: S. cerevisiae deletion strains, growth OD, locus YER133W, strain GLC7, active compounds read low
Out of some 5,500 compounds screened, about 2,000 (36%) were called active. Not shown: some 18% with an inconclusive outcome. The list shows a part of the results.
API doc: respond with a numeric literal and nothing else, no unit.

{"MOLECULE": "N/C(Cn1ccc(C(F)(F)F)n1)=N/OS(=O)(=O)c1cccc(Cl)c1Cl", "normalized growth": 0.995}
{"MOLECULE": "COc1ccc(C(CC(=O)c2ccccc2)Sc2ccccc2N)cc1OC (stereo unspecified)", "normalized growth": 0.954}
{"MOLECULE": "N/C(CCSc1ccc(Cl)cc1)=N/OC(=O)Nc1ccc(Cl)cc1", "normalized growth": 0.286}
{"MOLECULE": "Cc1cccc(NC(=S)N/N=C\\c2ccc(F)cc2)c1", "normalized growth": 0.847}
{"MOLECULE": "CC(C)(C)c1ccc(N/N=C(\\C#N)C(N)=O)cc1", "normalized growth": 0.133}
{"MOLECULE": "O=C(Oc1cccc2[nH]ccc12)c1ccc(C(F)(F)F)cc1", "normalized growth": 0.775}
{"MOLECULE": "Cc1c(C(=O)Sc2ccc(F)cc2F)sc2nc(C(F)(F)F)nn12", "normalized growth": 0.106}
{"MOLECULE": "C/C(Cc1nnn(-c2cc(C)on2)n1)=N/OC(=O)Nc1ccc(Cl)cc1", "normalized growth": 0.95}

Data request: Could you please provide reported normalized growth for Cc1nn(C)c(C(=O)Sc2ccc(OC(F)(F)F)cc2)c1[N+](=O)[O-] ? Thanks!
Data returned: 1

Data request: Complete the entry with normalized growth for Cc1ccc(S(=O)(=O)NC(=O)Nc2ccc(Sc3ccccc3)nc2Sc2ccccc2)cc1
Data returned: 0.961

Data request: Query normalized growth for CCOC(=O)C1C(c2c(F)cccc2Cl)C(C(=O)OCC)C(O)(C(F)(F)F)NC1(O)C(F)(F)F (stereo unspecified)
Data returned: 0.988

Data request: Dear colleague, please send me the reported normalized growth for O=C(NCc1ccc(Cl)c(Cl)c1)c1cccnc1OCC(F)(F)F when you can.
Data returned: 0.961

Data request: Indicate its recorded normalized growth; the molecule in question is COc1cccc(C2CCN(C(=O)c3cccc4ccccc34)CC2)c1
Data returned: 0.899

Data request: Provide one value: measured normalized growth of CCOC(=O)c1ccc2nc(N=CNO)sc2c1
Data returned: 0.888

Data request: Give normalized growth for N#C/C(=N/Nc1ccc(F)cc1)S(=O)(=O)c1ccc(Cl)cc1
Data returned: 0.968

Data request: Check the records and state normalized growth for N#C/C(=N/Nc1ccccc1)C(=O)c1ccccc1OC(F)(F)F
Data returned: 0.898

* * *

assay: chemical genetic growth profiling, strain panel (AID 1159580);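 further: tested at 20 µM; growth read once vehicle control cultures reached saturation at 30 °C; 1 = growth at the plate median or of vehicle wells; lower values mean less growth of the strain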; conditions: S. cerevisiae deletion strains, growth OD, locus YDR318W, strain mcm21, active compounds read low
About 2,000 (36%) of roughly 5,500 compounds were called active. Inconclusive results (about 18%) are left out. Some of the results follow.
# 1 = normalized growth below 1 (exclusive); -1 = normalized growth at/above 1

{"COMPOUND": "CC[C@@]1(O)C[C@H](O)c2c(cc3c(c2O)C(=O)c2c(O)ccc(O)c2C3=O)[C@H]1C(=O)OC", "CATEGORY": 1}

Could you now look at the following compound, please?
Data request: Say whether its normalized growth is strictly beneath 1. Entry: CC1CCc2cc(F)cc3c(=O)c(C(=O)O)cn1c23 (stereo unspecified)
Data returned: 1

* * *

test: chemical genetic growth profiling, strain panel (AID 1159580);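 further: tested at 20 µM; growth read once vehicle control cultures reached saturation at 30 °C; 1 = growth at the plate median or of vehicle wells; lower values mean less growth of the strain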; details: S. cerevisiae deletion strains, growth OD, locus YDR159W, strain sac3, active compounds read low
In all, about 5,500 compounds went through this assay and about 2,000 (36%) were called active. Roughly 18% stayed inconclusive and do not appear here. This is one part of the list.
PROPERTY LABEL: normalized growth
Write the value as a bare number.

{"COMPOUND": "COc1cc(CNC(=O)CCCC/C=C/C(C)C)ccc1O", "RECORDED VALUE": 0.999}

Data request: Give the reported normalized growth for this compound. O=C(Oc1cc(OC(=O)c2ccccc2)c2c(c1)O[C@H](c1ccc(OC(=O)c3ccccc3)c(OC(=O)c3ccccc3)c1)[C@@H](OC(=O)c1ccccc1)C2)c1ccccc1
Data returned: 0.999

Data request: Provide measured normalized growth value, entry: CN(C)CCN(Cc1ccccc1)c1ccccn1
Data returned: 0.981

Data request: Quote normalized growth reported for COc1ccc(CN(CCN(C)C)c2ccccn2)cc1 please.
Data returned: 0.992

* * *

assay: chemical genetic growth profiling, strain panel (AID 1159580);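 further: tested at 20 µM; growth read once vehicle control cultures reached saturation at 30 °C; 1 = growth at the plate median or of vehicle wells; lower values mean less growth of the strain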; conditions: S. cerevisiae deletion strains, growth OD, locus YML120C, strain ndi1, active compounds read low
In all, about 5,500 compounds went through this assay and about 2,000 (36%) were called active. Not shown: some 18% with an inconclusive outcome. This is one part of the list.
PROPERTY LABEL: normalized growth
Enter a number only.

Example entries begin here.
{"COMPOUND": "O=C(c1ccc(OCCN2CCCCC2)cc1)c1c(-c2ccc(O)cc2)sc2cc(O)ccc12", "normalized growth": 1.01}
{"COMPOUND": "COc1c(N2CCNC(C)C2)c(F)cc2c(=O)c(C(=O)O)cn(C3CC3)c12 (stereo unspecified)", "normalized growth": 0.984}
{"COMPOUND": "O=C(NC(=O)c1ccccc1Cl)Nc1ccc(OC(F)(F)F)cc1", "normalized growth": 1.03}
{"COMPOUND": "CCN(CC)C(=O)N1CCN(C)CC1", "normalized growth": 0.961}
{"COMPOUND": "COc1ccc(C(c2ccc(OC)cc2)C(Cl)(Cl)Cl)cc1", "normalized growth": 1.02}

Data request: Supply reported normalized growth belonging to this compound: CCn1cc(C(=O)O)c(=O)c2cc(F)c(N3CCNC(C)C3)c(F)c21 (stereo unspecified)
Data returned: 0.993

Data request: Give normalized growth for the following compound: OCC(O)CN1CCN(c2ccccc2)CC1 (stereo unspecified)
Data returned: 0.982

Values from PubChem BioAssay AID1159580
